Recorded values, source patent US10058550B2.

Exercise: state measured pEC50 for each of the compounds provided.
- target_or_test_system: human APJ receptor (Homo sapiens (Human))
- Sequence (P35414 whole entry): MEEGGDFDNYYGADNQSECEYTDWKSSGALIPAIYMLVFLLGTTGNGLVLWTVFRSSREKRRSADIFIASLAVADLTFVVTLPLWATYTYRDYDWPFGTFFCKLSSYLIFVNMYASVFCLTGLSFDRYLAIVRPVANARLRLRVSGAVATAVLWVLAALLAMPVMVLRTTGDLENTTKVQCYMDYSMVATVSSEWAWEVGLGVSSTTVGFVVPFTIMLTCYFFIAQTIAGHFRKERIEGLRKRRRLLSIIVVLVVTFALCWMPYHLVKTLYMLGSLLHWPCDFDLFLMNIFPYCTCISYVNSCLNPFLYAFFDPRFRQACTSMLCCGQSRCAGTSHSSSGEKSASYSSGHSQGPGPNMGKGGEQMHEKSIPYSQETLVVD
- method_description: biochemical
- condition_label: read-out: Activity hAPJ SPA EC50 IP
- Protocol: The human APJ receptor was cloned by polymerase chain reaction and the gene encoding the receptor was subcloned in pFLAG-CMV™-3 expression vector (Sigma, Saint Louis, Mo. USA) in-house at Amgen. A GTPγS binding assay was performed on membranes prepared from CHO cells stably expressing human APJ receptor. The optimum experimental conditions for the concentrations of GDP, MgCl2, and NaCl in the assay buffer were initially determined. […]
Numbers only, as −log10 of the molar value.

>>> result_value("COc1cccc(OC)c1-n1c(NS(=O)(=O)[C@@H](C)[C@@H](OC(C)C)c2ncc(C)cn2)nnc1-c1ccccn1")
9.11

// each listed compound needs a value for pEC50
1. CCO[C@H](c1ncc(C)cn1)[C@H](C)S(=O)(=O)Nc1nnc(-c2cccnc2)n1-c1c(OC)cccc1OC
2. COc1cccc(OC)c1-n1c(NS(=O)(=O)[C@@H]2C[C@H](OC)CN(c3ncc(F)cn3)C2)nnc1-c1cccnc1 (stereo in doubt) [Example 817.0]
3. COc1cccc(OC)c1-n1c(NS(=O)(=O)[C@@H](C)[C@H](OC)c2ncc(Cl)cn2)nnc1-c1cccc(C)n1

1: 9.07; 2: 7.80; 3: 9.43

---

Kindly state EC50 for each of the entries shown.
- target_or_test_system: human APJ receptor (Homo sapiens (Human))
- method_description: biochemical
- condition_label: read-out: Activity hAPJ SPA EC50 IP
- Description: The human APJ receptor was cloned by polymerase chain reaction and the gene encoding the receptor was subcloned in pFLAG-CMV™-3 expression vector (Sigma, Saint Louis, Mo. USA) in-house at Amgen. A GTPγS binding assay was performed on membranes prepared from CHO cells stably expressing human APJ receptor. The optimum experimental conditions for the concentrations of GDP, MgCl2, and NaCl in the assay buffer were initially determined. […]
Answers are plain numbers, in nM.

>>> result_value("COc1cccc(-c2nnc(NS(=O)(=O)[C@H]3CCCO[C@H]3c3ncc(C)cn3)n2-c2c(OC)cccc2OC)n1 (mixture of isomers) [Example 648.0]")
33
>>> result_value("CCc1cccc(-c2nnc(NS(=O)(=O)[C@@H](C)[C@H](OC)c3ncc(C)cn3)n2-c2c(OC)cccc2OC)n1 [Example 174.0]")
0.2
>>> result_value("COc1cccc(OC)c1-n1c(NS(=O)(=O)[C@H](C)[C@@H](OC)c2ccc(Cl)cn2)nnc1-c1cccnc1 (single isomer, unassigned) [Example 530.0]")
48.5

Required: EC50, one value per compound below.
1. COc1cccc(OC)c1-n1c(NS(=O)(=O)[C@@H](C)Cc2ncc(F)cn2)nnc1-c1cccc(C)n1 (mixture of isomers) [Example 618.0]
2. COc1cccc(OC)c1-n1c(NS(=O)(=O)C[C@H](O)c2ccc(C#N)cc2S(C)(=O)=O)nnc1-c1cncc(C)c1 (single isomer, unassigned) [Example 492.0]
3. COc1cccc(OC)c1-n1c(NS(=O)(=O)[C@H](C)[C@@H](OCCO)c2ncc(C)cn2)nnc1-c1cncc(C)c1 (single isomer, unassigned) [Example 395.0]
4. COc1cccc(OC)c1-n1c(NS(=O)(=O)C(C)Cc2ncc(F)cn2)nnc1-c1cncc(Br)c1 (racemic) [Example 146.0]

1. 5.4
2. 0.61
3. 0.11
4. 2.1
